Provenance of the data: ChEMBL document CHEMBL5260820

Measured On: Histamine H3 receptor (Homo sapiens)
Sequence (Q9Y5N1 whole entry): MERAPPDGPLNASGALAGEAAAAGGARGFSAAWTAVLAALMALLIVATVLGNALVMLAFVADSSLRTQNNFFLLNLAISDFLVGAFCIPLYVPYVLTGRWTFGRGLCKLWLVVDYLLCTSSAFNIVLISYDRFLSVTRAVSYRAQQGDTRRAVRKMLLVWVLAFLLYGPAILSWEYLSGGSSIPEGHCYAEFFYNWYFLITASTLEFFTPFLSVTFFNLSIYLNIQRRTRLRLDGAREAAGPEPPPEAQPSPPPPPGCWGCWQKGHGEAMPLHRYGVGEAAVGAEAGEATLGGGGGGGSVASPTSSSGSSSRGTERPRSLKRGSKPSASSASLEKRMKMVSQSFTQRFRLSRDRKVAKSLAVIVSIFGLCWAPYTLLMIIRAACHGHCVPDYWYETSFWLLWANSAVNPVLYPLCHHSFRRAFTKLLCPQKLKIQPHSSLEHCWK
Procedure Text: Inverse agonist activity at recombinant human histamine H3 receptor expressed in CHO-K1 cells preincubated for 10 mins followed by [35S]GTPgammaS addition and measured after 60 mins by TopCount NXT based scintillation analysis
Measured EC50 accompanies every entry in the list below.
Write the value in nM as a bare number.

Here are 3 molecules together with their reported answers.
For reference, reported EC50 for C[C@@H]1Cc2cc(OCCCN3CCCC3)ccc2[C@H]2CC[C@]3(C)[C@@H](N4CCCC4)CC[C@H]3[C@H]12 stands at 0.2

The molecule C[C@H]1CCCN1CCCOc1ccc2c(c1)CC[C@@H]1[C@@H]2CC[C@]2(C)[C@@H](N3CCCC3)CC[C@@H]12 showed EC50 equal to 0.6

Query C[C@]12CC[C@@H]3c4ccc(OCCCN5CCCCCC5)cc4CC[C@H]3[C@@H]1CC[C@@H]2N1CCCC1 yields EC50 of 0.6

Here's the next entry for you.
// EC50 lookup, molecule = C[C@]12CC[C@@H]3c4ccc(OCCCN5CCC(O)C5)cc4CC[C@H]3[C@@H]1CC[C@@H]2N1CCCC1 (some centres undefined) , result: 1.2
